biological target: Jun bZIP R272A;Fos bZIP R157A (human;human, UniProt P05412;P01100 252-315;137-200, R272A|R157A); experiment: ITC
Sequence (P05412 252-315 R272A, chain 1 of 2): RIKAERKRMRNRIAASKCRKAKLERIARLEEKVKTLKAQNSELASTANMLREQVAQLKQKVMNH
Sequence (P01100 137-200 R157A, chain 2 of 2): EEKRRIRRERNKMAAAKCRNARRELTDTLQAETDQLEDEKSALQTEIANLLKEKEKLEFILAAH
Property label: Kd (nM)

1) TRE duplex 15-mer (dsDNA) DNA 1: CGCGTGACTCACCCC DNA 2: GGGGTGAGTCACGCG; 430
